Molecular target: Substance-P receptor (Homo sapiens, UniProt P25103)
Sequence (P25103 whole entry): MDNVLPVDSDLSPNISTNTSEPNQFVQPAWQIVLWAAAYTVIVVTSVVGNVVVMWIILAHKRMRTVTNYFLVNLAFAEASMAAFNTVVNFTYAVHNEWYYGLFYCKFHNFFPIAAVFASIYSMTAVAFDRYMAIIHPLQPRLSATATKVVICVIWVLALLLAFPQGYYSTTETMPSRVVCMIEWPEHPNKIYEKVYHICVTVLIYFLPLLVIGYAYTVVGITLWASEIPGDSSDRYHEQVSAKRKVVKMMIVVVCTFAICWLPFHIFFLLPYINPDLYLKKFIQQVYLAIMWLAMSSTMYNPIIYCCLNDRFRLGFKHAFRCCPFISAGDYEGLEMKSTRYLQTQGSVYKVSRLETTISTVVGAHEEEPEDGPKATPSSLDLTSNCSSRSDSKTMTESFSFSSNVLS
Assay: Tachykinin receptor 1 antagonistic activity as ability to inhibit [125I]BH-SP binding in human IM-9 cells (lymphoblast cells)
Quantity measured: IC50 (nM)
Report the figure in nM without appending any unit label.

In: Please tell me: IC50 of Cc1ccc(-c2c3n(c(=O)c4ncccc24)C[C@H](C)CN(Cc2cc(C(F)(F)F)cc(C(F)(F)F)c2)C3=O)cc1 , system Substance-P receptor (Homo sapiens, UniProt P25103)?
Out: 9.5

In: Checklist item: IC50 tested on Substance-P receptor (Homo sapiens, UniProt P25103), entry Cc1ccc(-c2c3n(c(=O)c4ncccc24)CCCCCN(Cc2cc(C(F)(F)F)cc(C(F)(F)F)c2)C3=O)cc1 , value?
Out: 1.8

In: What reported IC50 corresponds to Cc1ccc(-c2c3n(c(=O)c4ncccc24)CCN(Cc2cc(C(F)(F)F)cc(C(F)(F)F)c2)C3=O)cc1 on Substance-P receptor (Homo sapiens, UniProt P25103)?
Out: 2.3

In: Hello, I am looking for reported IC50 with Substance-P receptor (Homo sapiens, UniProt P25103) for Cc1ccc(-c2c3n(c(=O)c4ncccc24)CCCN(Cc2cc(C(F)(F)F)cc(C(F)(F)F)c2)C3=O)cc1 . Could you help?
Out: 0.85
